Every entry's value here was drawn from patent EP1377579B1.

biological target: cdk2/cyclin E (Homo sapiens, UniProt P24941); test: Cyclin-dependent kinase assay, cdk2/cyclin E; details: CDK2 IC50, nM, GST-pRb substrate, 10 µM ATP
Structures can show the parent of a compound that is named as a salt.
measurement_name: IC50 (nM)

>>> value_reported("N[C@H]1CC[C@H](Nc2nc(NC3CCN(C(=O)c4c(Cl)cccc4Cl)CC3)c3ncn(C4CCCC4)c3n2)CC1 [compound 14]")
514
>>> value_reported("COc1ccc(NC(=O)N2CCC(Nc3nc(N[C@H]4CC[C@H](N)CC4)nc4c3ncn4C3CCCC3)CC2)cc1 [compound 153, dihydrochloride]")
30
>>> value_reported("N[C@H]1CC[C@H](Nc2nc(NC3CCN(S(=O)(=O)c4ccccc4Br)CC3)c3ncn(C4CCCC4)c3n2)CC1 [compound 136, dihydrochloride]")
37
>>> value_reported("N[C@H]1CC[C@H](Nc2nc(NC3CCN(S(=O)(=O)c4cccc5cccnc45)CC3)c3ncn(C4CCCC4)c3n2)CC1 [compound 144, dihydrochloride]")
2
>>> value_reported("Cl.Cl.N[C@H]1CC[C@H](Nc2nc(NC3CCN(C(=O)Oc4ccccc4)CC3)c3ncn(C4CCCC4)c3n2)CC1 [compound 85, dihydrochloride]")
8
>>> value_reported("Cl.Cl.N[C@H]1CC[C@H](Nc2nc(NC3CCN(C(=O)Oc4ccc(Cl)cc4)CC3)c3ncn(C4CCCC4)c3n2)CC1 [compound 88, dihydrochloride]")
7
>>> value_reported("N[C@H]1CC[C@H](Nc2nc(NC3CCN(C(=O)Nc4ccccc4)CC3)c3ncn(C4CCCC4)c3n2)CC1 [compound 146, dihydrochloride]")
42
>>> value_reported("COc1ccc(NC(=O)N2CCC(Nc3nc(N[C@H]4CC[C@H](N)CC4)nc4c3ncn4C3CCCC3)CC2)c(OC)c1 [compound 151, dihydrochloride]")
32
>>> value_reported("N[C@H]1CC[C@H](Nc2nc(NC3CCN(C(=O)c4ccc(C(F)(F)F)cc4)CC3)c3ncn(C4CCCC4)c3n2)CC1 [compound 2, dihydrochloride]")
92
>>> value_reported("N[C@H]1CC[C@H](Nc2nc(NC3CCN(C(=O)c4ccc(Br)cc4)CC3)c3ncn(C4CCCC4)c3n2)CC1 [compound 74]")
239
>>> value_reported("COc1cccc(CC(=O)N2CCC(Nc3nc(N[C@H]4CC[C@H](N)CC4)nc4c3ncn4C3CCCC3)CC2)c1 [compound 38, dihydrochloride]")
66

---

Entries and their measured IC50 follow.
target: cdk1/cyclin B (Homo sapiens); assay: Cyclin-dependent kinase assay, cdk1/cyclin B; conditions: CDK1 IC50, nM, Histone H1, 10 µM ATP
Sequence (P06493 whole entry): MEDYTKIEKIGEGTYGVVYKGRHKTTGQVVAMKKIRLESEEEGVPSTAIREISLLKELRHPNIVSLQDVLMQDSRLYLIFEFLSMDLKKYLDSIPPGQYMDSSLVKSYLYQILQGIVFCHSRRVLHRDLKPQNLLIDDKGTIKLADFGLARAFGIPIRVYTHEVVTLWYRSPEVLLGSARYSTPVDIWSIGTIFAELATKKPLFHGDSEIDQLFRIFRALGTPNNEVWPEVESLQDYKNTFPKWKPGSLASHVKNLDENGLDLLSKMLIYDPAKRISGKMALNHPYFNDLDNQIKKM
Sequence (P14635 whole entry partner): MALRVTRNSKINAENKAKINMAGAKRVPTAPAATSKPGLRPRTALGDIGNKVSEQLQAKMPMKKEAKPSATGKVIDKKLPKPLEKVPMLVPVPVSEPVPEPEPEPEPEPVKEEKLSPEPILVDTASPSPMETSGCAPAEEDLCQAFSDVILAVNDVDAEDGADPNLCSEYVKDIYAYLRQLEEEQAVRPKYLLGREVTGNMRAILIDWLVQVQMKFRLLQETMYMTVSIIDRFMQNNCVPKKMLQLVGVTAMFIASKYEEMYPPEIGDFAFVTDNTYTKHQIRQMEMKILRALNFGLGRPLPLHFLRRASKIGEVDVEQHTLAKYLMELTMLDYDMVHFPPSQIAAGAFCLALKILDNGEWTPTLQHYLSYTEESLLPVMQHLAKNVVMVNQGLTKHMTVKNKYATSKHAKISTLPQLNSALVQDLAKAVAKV
Where a name gives a salt, the structure may show the parent alone.
measurement_name: IC50 (nM)

>>> value_reported("N[C@H]1CC[C@H](Nc2nc(NC3CCN(C(=O)C4CC4)CC3)c3ncn(C4CCCC4)c3n2)CC1 [compound 64, dihydrochloride]")
65
>>> value_reported("Cc1ccccc1NC(=O)N1CCC(Nc2nc(N[C@H]3CC[C@H](N)CC3)nc3c2ncn3C2CCCC2)CC1 [compound 208, dihydrochloride]")
180
>>> value_reported("N[C@H]1CC[C@H](Nc2nc(NC3CCN(C(=O)c4ccc(Cl)cc4)CC3)c3ncn(C4CCCC4)c3n2)CC1 [compound 75]")
71
>>> value_reported("CCCCOc1ccc(C(=O)N2CCC(Nc3nc(N[C@H]4CC[C@H](N)CC4)nc4c3ncn4C3CCCC3)CC2)cc1 [compound 18]")
506
>>> value_reported("CC(C)(C)c1ccc(S(=O)(=O)N2CCC(Nc3nc(N[C@H]4CC[C@H](N)CC4)nc4c3ncn4C3CCCC3)CC2)cc1 [compound 130, dihydrochloride]")
8
>>> value_reported("CC(C)n1cnc2c(NC3CCN(C(=O)COc4ccccc4)CC3)nc(N[C@H]3CC[C@H](N)CC3)nc21 [compound 80, dihydrochloride]")
244
>>> value_reported("COc1cc(COC(=O)N2CCC(Nc3nc(N[C@H]4CC[C@H](N)CC4)nc4c3ncn4C3CCCC3)CC2)c([N+](=O)[O-])cc1OC [compound 101, dihydrochloride]")
31
>>> value_reported("Cc1ccc(OC(=O)N2CCC(Nc3nc(N[C@H]4CC[C@H](N)CC4)nc4c3ncn4C3CCCC3)CC2)cc1.Cl.Cl [compound 82, dihydrochloride]")
31
>>> value_reported("CC(C)NC(=O)N1CCC(Nc2nc(N[C@H]3CC[C@H](N)CC3)nc3c2ncn3C2CCCC2)CC1 [compound 157, dihydrochloride]")
310
>>> value_reported("COC(=O)c1ccccc1NC(=O)N1CCC(Nc2nc(N[C@H]3CC[C@H](N)CC3)nc3c2ncn3C2CCCC2)CC1 [compound 193, dihydrochloride]")
26

---

target: cdk2/cyclin E (Homo sapiens, UniProt P24941); experiment: Cyclin-dependent kinase assay, cdk2/cyclin E; conditions: CDK2 IC50, nM, GST-pRb substrate, 10 µM ATP
Counter-ions that a name gives are not always drawn.
measurement_name: IC50 (nM)

>>> value_reported("CCCCCC(=O)N1CCC(Nc2nc(N[C@H]3CC[C@H](N)CC3)nc3c2ncn3C2CCCC2)CC1 [compound 54, dihydrochloride]")
49
>>> value_reported("COCC(=O)N1CCC(Nc2nc(N[C@H]3CC[C@H](N)CC3)nc3c2ncn3C2CCCC2)CC1 [compound 65, dihydrochloride]")
50
>>> value_reported("COc1ccc(CC(=O)N2CCC(Nc3nc(N[C@H]4CC[C@H](N)CC4)nc4c3ncn4C3CCCC3)CC2)cc1 [compound 42, dihydrochloride]")
51

---

target: cdk4/cyclin D1 (Homo sapiens); test: Cyclin-dependent kinase assay, cdk4/cyclin D1; assay type: biochemical; settings: cyclin D1/cdk4; GST-pRb substrate, 10 µM ATP
Sequence (P11802 whole entry): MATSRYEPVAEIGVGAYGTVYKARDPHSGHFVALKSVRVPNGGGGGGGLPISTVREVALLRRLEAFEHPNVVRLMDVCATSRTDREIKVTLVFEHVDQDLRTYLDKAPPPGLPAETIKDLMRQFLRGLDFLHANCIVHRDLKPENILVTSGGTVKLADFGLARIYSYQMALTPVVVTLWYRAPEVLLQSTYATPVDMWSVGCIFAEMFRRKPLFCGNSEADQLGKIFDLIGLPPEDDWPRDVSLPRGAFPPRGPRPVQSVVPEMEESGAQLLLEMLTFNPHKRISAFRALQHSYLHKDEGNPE
Sequence (P24385 whole entry partner): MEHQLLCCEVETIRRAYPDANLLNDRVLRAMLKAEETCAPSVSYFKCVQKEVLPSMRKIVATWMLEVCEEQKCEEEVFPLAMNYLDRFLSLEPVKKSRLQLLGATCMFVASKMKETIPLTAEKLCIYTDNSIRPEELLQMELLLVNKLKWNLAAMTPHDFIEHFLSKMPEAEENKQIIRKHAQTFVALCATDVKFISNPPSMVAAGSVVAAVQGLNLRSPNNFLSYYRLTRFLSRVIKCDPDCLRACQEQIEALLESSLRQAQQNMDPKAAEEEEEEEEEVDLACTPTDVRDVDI
Counter-ions that a name gives are not always drawn.
Criterion: IC50 strictly less than 0.4 µM. Met: MET. Not met: NOT MET.

>>> category_label("COc1ccc(C(=O)N2CCC(Nc3nc(N[C@H]4CC[C@H](N)CC4)nc4c3ncn4C3CCCC3)CC2)cc1 [compound 8, dihydrochloride]")
"NOT MET"
>>> category_label("N[C@H]1CC[C@H](Nc2nc(NC3CCN(C(=O)C4CCC4)CC3)c3ncn(C4CCCC4)c3n2)CC1 [compound 63, dihydrochloride]")
"NOT MET"
>>> category_label("CCCCS(=O)(=O)N1CCC(Nc2nc(N[C@H]3CC[C@H](N)CC3)nc3c2ncn3C2CCCC2)CC1 [compound 129, dihydrochloride]")
"MET"
>>> category_label("CSc1ccc(NC(=O)N2CCC(Nc3nc(N[C@H]4CC[C@H](N)CC4)nc4c3ncn4C3CCCC3)CC2)cc1 [compound 186, dihydrochloride]")
"NOT MET"
>>> category_label("CCCCNC(=O)N1CCC(Nc2nc(N[C@H]3CC[C@H](N)CC3)nc3c2ncn3C2CCCC2)CC1 [compound 204, dihydrochloride]")
"MET"

---

target: cdk4/cyclin D1 (Homo sapiens); experiment: Cyclin-dependent kinase assay, cdk4/cyclin D1; type: biochemical; conditions: cyclin D1/cdk4; GST-pRb substrate, 10 µM ATP
Where a name gives a salt, the structure may show the parent alone.
measurement_name: log10 IC50 (log10 of the value in nM)

>>> value_reported("N[C@H]1CC[C@H](Nc2nc(NC3CCN(C(=O)C4CCCCC4)CC3)c3ncn(C4CCCC4)c3n2)CC1 [compound 55, dihydrochloride]")
2.79
>>> value_reported("N[C@H]1CC[C@H](Nc2nc(NC3CCN(C(=O)c4cccc(Cl)c4)CC3)c3ncn(C4CCCC4)c3n2)CC1 [compound 6, dihydrochloride]")
1.94
>>> value_reported("CC(CC(=O)N1CCC(Nc2nc(N[C@H]3CC[C@H](N)CC3)nc3c2ncn3C2CCCC2)CC1)CC(C)(C)C (mixture of isomers) [compound 45, dihydrochloride]")
2.69
>>> value_reported("N[C@H]1CC[C@H](Nc2nc(NC3CCN(C(=O)COc4ccc(Cl)cc4)CC3)c3ncn(C4CCCC4)c3n2)CC1 [compound 31, dihydrochloride]")
3.31
>>> value_reported("CN(C)c1cccc2c(S(=O)(=O)N3CCC(Nc4nc(N[C@H]5CC[C@H](N)CC5)nc5c4ncn5C4CCCC4)CC3)cccc12 [compound 141, dihydrochloride]")
1.82
>>> value_reported("CC(C)(C)CC(=O)N1CCC(Nc2nc(N[C@H]3CC[C@H](N)CC3)nc3c2ncn3C2CCCC2)CC1 [compound 51, dihydrochloride]")
2.00
>>> value_reported("N[C@H]1CC[C@H](Nc2nc(NC3CCN(C(=O)NCCc4ccccc4)CC3)c3ncn(C4CCCC4)c3n2)CC1 [compound 197, dihydrochloride]")
2.58
>>> value_reported("CC(=O)Nc1ccc(S(=O)(=O)N2CCC(Nc3nc(N[C@H]4CC[C@H](N)CC4)nc4c3ncn4C3CCCC3)CC2)cc1 [compound 115, dihydrochloride]")
1.15
>>> value_reported("N[C@H]1CC[C@H](Nc2nc(NC3CCN(C(=O)C4CCCC4)CC3)c3ncn(C4CCCC4)c3n2)CC1 [compound 39]")
2.82
>>> value_reported("N[C@H]1CC[C@H](Nc2nc(NC3CCN(S(=O)(=O)c4ccc(OC(F)(F)F)cc4)CC3)c3ncn(C4CCCC4)c3n2)CC1 [compound 134, dihydrochloride]")
1.92
>>> value_reported("Cl.Cl.N[C@H]1CC[C@H](Nc2nc(NC3CCN(S(=O)(=O)c4ccc(F)cc4)CC3)c3ncn(C4CCCC4)c3n2)CC1 [compound 106, dihydrochloride]")
1.18
>>> value_reported("N[C@H]1CC[C@H](Nc2nc(NC3CCN(C(=O)Cc4cccs4)CC3)c3ncn(C4CCCC4)c3n2)CC1 [compound 61, dihydrochloride]")
2.88
>>> value_reported("C=CCNC(=O)N1CCC(Nc2nc(N[C@H]3CC[C@H](N)CC3)nc3c2ncn3C2CCCC2)CC1 [compound 164, dihydrochloride]")
2.87
>>> value_reported("Cc1ccccc1C(=O)N1CCC(Nc2nc(N[C@H]3CC[C@H](N)CC3)nc3c2ncn3C2CCCC2)CC1 [compound 70]")
3.65
